Attribute: logD
Test: method code SF, from DOI: 10.1021/js9700917, PMID: 9452977
Settings: pH 5.5

structure=NS(=O)(=O)c1ncncc1-c1ccccc1 measure_name=logD observed_result=0.5

Form: molecule = `Cc1nc(NS(=O)(=O)c2ccc(N)cc2)oc1C` ; logD = 0.2

###

compounds and their reported logP
Assay: method code SF-HPLC, from DOI: 10.1002/jlac.1995199512305
Lab note: record just the number, no unit beside it.

Field: example entries. Status: answers known.
compound="Cc1cn(C2CC(N=[N+]=[N-])C(COP(=O)(OCC3OC(n4cc(C)c(=O)[nH]c4=O)CC3N=[N+]=[N-])C(O)c3ccc(Cl)cc3)O2)c(=O)[nH]c1=O (centres undefined)" observed_result=1.45
compound="Cc1cn(C2CC(N=[N+]=[N-])C(COP(=O)(OCC3OC(n4cc(C)c(=O)[nH]c4=O)CC3N=[N+]=[N-])C(O)c3ccc([N+](=O)[O-])cc3[N+](=O)[O-])O2)c(=O)[nH]c1=O (centres undefined)" observed_result=0.94
compound="COc1ccc(C(O)P(=O)(OCC2OC(n3cc(C)c(=O)[nH]c3=O)CC2N=[N+]=[N-])OCC2OC(n3cc(C)c(=O)[nH]c3=O)CC2N=[N+]=[N-])cc1 (centres undefined)" observed_result=0.72

Entry Cc1cn(C2CC(N=[N+]=[N-])C(COP(=O)(OCC3OC(n4cc(C)c(=O)[nH]c4=O)CC3N=[N+]=[N-])C(O)c3ccc([N+](=O)[O-])cc3)O2)c(=O)[nH]c1=O (centres undefined) , logP reported as 0.83

###

Experiment: method code SF-HPLC, from DOI: 10.1021/jm701549s, PMID: 18558667
Details: pH 7.4
Measure name: logD

The molecule listed as `CN(C)C(=O)c1ccc(Br)cc1` has a reported logD of 1.83

###

Experiment: method code SF-NMR, from DOI: 10.1002/jps.2600751016, PMID: 3795031
Measure name: logP
Give the value as a plain number.

molecule=OCCCCC(F)(F)F measure_name=logP observed_result=1.15
molecule="CC(CCO)CC(F)(F)F (centres undefined)" measure_name=logP observed_result=1.61
molecule="CC(O)CC(F)(F)F (centres undefined)" measure_name=logP observed_result=0.71

// switching to the query molecule
So, `OCCCCCC(F)(F)F` ? Its logP was 1.64

###

Threshold rule: logP greater than or equal to 5 is true (1); below that, false (0).

Use these answered entries as a reference point.
structure=COc1ccc(NC(=O)c2cc(-c3sc(NC(=O)C(C)(C)C)nc3C)nn2Cc2ccc(Cl)cc2OC)cc1 group_label="true (1)"
structure=COc1ccc(NC(=O)c2cc(-c3sc(NC(=O)C(C)(C)C)nc3C)n(-c3ccc(Br)cc3)n2)cc1 group_label="true (1)"
structure=COc1cc(Cl)ccc1Cn1nc(-c2sc(NC(=O)C(C)(C)C)nc2C)cc1C(=O)N1CCOCC1 group_label="false (0)"
structure=C=CCn1nc(-c2sc(NC(=O)C(C)(C)C)nc2C)cc1C(=O)Nc1ccc(OC)cc1 group_label="false (0)"

Lab note: next molecule to report on.
# input hey, is logP for this one >= 5? `Cc1nc(NC(=O)C(C)(C)C)sc1-c1cc(C(=O)NCc2ccccc2)n(Cc2ccccc2)n1`
# output false (0)

###

Test: method code SF, from DOI: 10.1016/j.ijpharm.2011.07.043, PMID: 21839822
Conditions: pH 7.4
Items are presented alongside their recorded logD.
Lab note: jot the number down without any unit.

structure=CCCCCCCCCCCCNC(=O)c1ccccc1O observed_result=5.37

logD for `CCCCCCCCCCNC(=O)c1ccccc1O` is 4.53

###

Assay: method code SF-ESR, from DOI: 10.1111/1523-1747.ep12319780, PMID: 2551971
Details: pH 7.0
Measure name: logD
# output: bare number, no unit

Entry `CC1(C)CCC(C)(C)N1[O]` , logD reported as 1

###

// reported logP per item
Assay: method code SF-HPLC, from DOI: 10.1248/cpb.43.1894

structure=COc1ccc(C(=CSC)C(=S)SC)cc1 observed_result=4.1

Briefly, logP measured for `CSC(=S)C1=C(SC)CCC1` : 3.59

###

Measure name: logP
# answer = number (no unit)

# count of solved cases: 2
compound="COc1ccc(CC2C(=O)NC(C)C(=O)N(C)C3Cc4ccc(cc4)Oc4cc(ccc4O)CC(C(=O)NC(C)C(=O)NC(C)C(=O)N2C)N(C)C3=O)cc1 (stereo not drawn)" measure_name=logP observed_result=2.72
compound="COc1ccc(CC2C(=O)NC(C)C(=O)N(C)C3Cc4ccc(cc4)Oc4cc(ccc4OC(C)=O)CC(C(=O)NC(C)C(=O)NC(C)C(=O)N2C)N(C)C3=O)cc1 (stereo not drawn)" measure_name=logP observed_result=3.19

Query COc1ccc(CC2C(=O)NC(C)C(=O)N(C)C3Cc4ccc(cc4)Oc4cc(ccc4OC)CC(C(=O)NC(C)C(=O)NC(C)C(=O)N2C)N(C)C3=O)cc1 (stereo not drawn) yields logP of 3.17

###

Experiment: method code SF-AS, from DOI: 10.1002/chin.197711219
Settings: pH 7.4
Measure name: logD
# output: bare number, no unit

Kindly note the recorded logD for `O=C1C(=C2C=CN(CCN3CCOCC3)C=C2)C(=O)c2ccccc21` , which is 2.01

###

Assay: method code SF-HPLC, from DOI: 10.1016/0378-5173(86)90195-x
Details: pH 7.4
Measure name: logD
Respond with the number and no other words.

structure=CCCC(=O)OCOc1ccccc1C(=O)NCN1CCOCC1 observed_result=1.34

We next turn to a different molecule, shown below.
The molecule listed as `CC(=O)OCOc1ccccc1C(=O)NCN1CCOCC1` has a reported logD of 0.27

###

// reported logD for each item listed
Settings: pH 7.4
Respond numerically, and do not add a unit to the figure.

structure=Cc1ccc(C)n1NC(=O)Cc1ccc(N2CCOCC2)nn1 measure_name=logD observed_result=1.64

Turning now to a further compound:
logD recorded for this compound, `Cc1ccc(C)n1Nc1ccc(N2C[C@@H](C)O[C@@H](C)C2)nn1` , is 2.59

###

Test: method code SF-HPLC, from DOI: 10.1021/jm1007903, PMID: 20828199
Details: pH 7.4
Measure name: logD

Recorded logD (molecule `CCCCCCCc1c(C)[nH]c2cc(OC)c(Cl)cc2c1=O` ): 3.83

###

Measured logP by item
I'd appreciate a reply containing only the number, no unit.

structure=Cc1c(Cl)cccc1[N+](=O)[O-] measure_name=logP observed_result=3.09

Now consider a different molecule.
According to the records, this molecule `Cc1cccc([N+](=O)[O-])c1` displays logP of 2.4

###

Assay: method code SF-AS, from DOI: 10.1016/j.ejmech.2010.07.027, PMID: 20705371
Measure name: logP
Just the number, please, no unit attached.

Noted for `CC(C)(C)c1cc(CN2CCOCC2)c(O)c(CN2CCOCC2)c1` : its logP reads 2.03

###

Test: method code SF-AS, from DOI: 10.5012/bkcs.2007.28.7.1183
Measure name: logP
Please state the value as a number alone, without comment.

Record `Cc1cc(C)nc(NS(=O)(=O)c2ccc(N)cc2)n1` . Reported logP: 0.21

###

Measure name: logP
Lab note: record just the number, no unit beside it.

For reference, reported logP for `c1ccc(Oc2ccccc2-c2ccccc2)cc1` stands at 5.66

###

Test: method code SF-AS, from DOI: 10.1248/cpb.26.2824
Measure name: logP
// return just the number, without any unit appended

For record `Cc1ccc(O)c(C(=O)O)c1` the listed logP is 2.78

###

Assay: method code SF-AS, from DOI: 10.1021/jm00254a011, PMID: 4845376
Measure name: logP
Number only, please.

structure=Nc1nc(C=Cc2ccc([N+](=O)[O-])o2)no1 observed_result=1.3
structure=O=[N+]([O-])c1ccc(N2CCNC2=S)o1 observed_result=0.98

// logP lookup, molecule = `CC(C)NC(=O)C=Cc1ncc([N+](=O)[O-])s1` , result: 1.76

###

Experiment: method code SF-AS, from DOI: 10.1021/jm00040a014, PMID: 8035429
Settings: pH 7.4
Catalogue of logD readings, one per entry.
Hey, just send me the number, nothing else.

Lookup result for CCOP(=O)(CC(=O)Nc1ccn(C2CSC(CO)O2)c(=O)n1)OCC (configuration not stated) ; measured logD: 0.99

Record COP(=O)(OC)C(=O)Nc1ccn(C2CSC(COC(=O)P(=O)(OC)OC)O2)c(=O)n1 (configuration not stated) . Reported logD: 0.72

###

Measure name: logP
# answer = number (no unit)

Before answering, review these 2 worked examples.
structure=CC(C)n1ccc(=O)c(O)c1 observed_result=-0.02
structure=Cn1ccc(=O)c(O)c1 observed_result=-0.7

Please examine the following record next.
So, `CCCn1ccc(=O)c(O)c1` ? Its logP was -0.17
